For each entry below, report its IC50 value.
- EXPERIMENTAL_TARGET: CMP-KDO synthetase (Escherichia coli)
- Sequence (P04951 whole entry): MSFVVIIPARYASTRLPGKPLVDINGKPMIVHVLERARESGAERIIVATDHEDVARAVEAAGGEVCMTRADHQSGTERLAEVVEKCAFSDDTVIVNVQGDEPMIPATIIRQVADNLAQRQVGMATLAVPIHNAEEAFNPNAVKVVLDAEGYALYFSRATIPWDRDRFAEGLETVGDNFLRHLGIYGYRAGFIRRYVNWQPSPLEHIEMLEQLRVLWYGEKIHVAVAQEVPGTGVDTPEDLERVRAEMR
- PROTOCOL: Inhibition of CMP-KDO synthetase activity (colorimetric phosphate)
- Type: biochemical, gram-negative bacteria
Respond with the bare value in µM.

Input line: Need IC50 of CNC[C@@H](O)[C@H]1OC(O)(C(=O)O)C[C@@H](O)[C@H]1O (stereo partly drawn) , thanks.
Output line: 81

Input line: What do we get for NC[C@@H](O)[C@H]1OC(O)(C(=O)O)C[C@@H](O)[C@H]1O (stereo partly drawn) ?
Output line: 310

Input line: Request: CCNC[C@@H](O)[C@H]1OC(O)(C(=O)O)C[C@@H](O)[C@H]1O (stereo partly drawn)
Output line: 70

Input line: What about this compound? NC[C@@H](O)[C@H]1O[C@H](C(=O)O)C[C@@H](O)[C@H]1O
Output line: 7

Input line: Also, CN(C)C[C@@H](O)[C@H]1OC(O)(C(=O)O)C[C@@H](O)[C@H]1O (stereo partly drawn) please.
Output line: 220

Input line: Continue with NCC(=O)NCC(=O)NC[C@@H](O)[C@H]1O[C@H](C(=O)O)C[C@@H](O)[C@H]1O
Output line: 230

* * *

- EXPERIMENTAL_TARGET: UniProtKB P04951
- PROTOCOL: Inhibition of CMP-KDO synthetase activity (colorimetric phosphate)
- Assay type: biochemical, gram-negative bacteria
- PARTICULARS: pH 9.5; 2 mM KDO, 5 mM magnesium cytidine triphosphate, inorganic pyrophosphatase; read-out: I50
MEASUREMENT_LABEL: IC50 (nM)
Please reply with the bare figure in nM and do not write the unit itself.

Input line: GET /values?readout=IC50&item= NCC[C@@H](O)[C@H]1O[C@H](C(=O)O)C[C@@H](O)[C@H]1O [Example 7]
Output line: 1900
